# assayed-system: T1, human serum albumin (HSA) (human, UniProt P02768 25-609)
# T1 construct: control target
# T1 sequence (P02768 25-609 limits assumed): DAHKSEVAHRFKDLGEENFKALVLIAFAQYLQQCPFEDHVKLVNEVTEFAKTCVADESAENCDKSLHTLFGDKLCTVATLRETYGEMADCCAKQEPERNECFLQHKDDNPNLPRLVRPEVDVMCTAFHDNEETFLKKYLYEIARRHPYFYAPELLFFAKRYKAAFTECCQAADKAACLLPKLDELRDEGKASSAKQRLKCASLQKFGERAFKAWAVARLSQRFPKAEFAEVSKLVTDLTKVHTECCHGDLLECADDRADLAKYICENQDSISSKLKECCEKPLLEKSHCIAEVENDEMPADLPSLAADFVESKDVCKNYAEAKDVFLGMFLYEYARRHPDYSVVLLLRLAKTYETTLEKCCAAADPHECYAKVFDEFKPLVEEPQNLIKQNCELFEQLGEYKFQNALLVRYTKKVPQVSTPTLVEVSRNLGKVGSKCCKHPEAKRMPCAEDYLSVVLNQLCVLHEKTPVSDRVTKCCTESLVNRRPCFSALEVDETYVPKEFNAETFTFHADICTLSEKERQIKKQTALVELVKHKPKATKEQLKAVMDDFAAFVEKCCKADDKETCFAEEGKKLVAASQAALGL
# experiment-summary: phage ELISA on immobilized HSA
Ends that are not written are not given here.
measured-property: binding result

binder="NWDCMFGAEGWACSPW (not fully specified (bridges); cysteine pairing not given here) [TN10/9-E01]" observed_measurement="no binding"
binder="DWVCENKKDQWTCNLL (not fully specified (bridges); cysteine pairing not given here, also called TN10/9 Isolate A07) [AB-A07]" observed_measurement="no binding"
binder="DWVCNFDQGLAHCFPS (not fully specified (bridges); cysteine pairing not given here) [TN10/9-D04]" observed_measurement="no binding"
